- System: A549 NSCLC
- experiment summary: NCI tumour cell line growth inhibition, 48 h
Catalogue of TGI values
recorded endpoint: TGI (µM)

compound	censoring operator	result
CC(C)(C)c1cc(O)ccc1O	>	100
CC(C)=CC1=C2C3=C(C(=O)C4(O)Oc5c(C)c6c7c(c5OC24C)[C@@H](C)CC[C@@H]7[C@@H](C)C[C@H]6C=C(C)C)C(C)CCC3C(C)C1 (stereo not given in full)	>	100
Oc1ccc(-c2nc3ccc(Cl)cc3s2)cc1	=	45.2
Nc1onc2c1Cc1c(noc1N)-c1ccccc1-2	>	100
C#CCOc1cccc(Nc2ncnc3cc(NC(=O)CCl)ccc23)c1	=	17.9

---

- System: MDA-MB-231 breast
- experiment summary: NCI tumour cell line growth inhibition, 48 h
Please mark Condition met if the recorded TGI is equal to or greater than 40 µM, and Condition not met if it falls below.

molecule	label
CCOC(=O)c1c2c(n3ccccc13)C(=O)c1ncccc1C2=O	Condition met
COc1cc(Cc2nccc3cc(OC)c(OC)cc23)c(N=NN(C)C)cc1OC	Condition not met
CC(C)(C)c1cc(O)ccc1O	Condition not met
CCOC(=O)C(SCCO)C(C(=O)OCC)n1ccc(=O)[nH]c1=O (stereo unspecified)	Condition met
COc1ccc2nc(-c3ccc(O)cc3)sc2c1	Condition met
OC(c1cc(C23CC4CC(CC(C4)C2)C3)nc2c(Cl)cc(Cl)cc12)C1CCCCN1 (stereo unspecified)	Condition not met
CC12CCC(Br)C(C)(C)C1CC=C1C(=O)OCC1O2 (stereo unspecified)	Condition not met
CC(C)NC(=O)CN1CCN(c2c(O)c3c(c(O)c2Cl)C(=O)C=CC3=O)CC1	Condition not met

---

Catalogue of TGI values
- Test system: EKVX NSCLC
- experiment summary: NCI tumour cell line growth inhibition, 48 h

molecule	TGI
COc1ccc2c(c1)CCc1c-2n(CCN2CCCCC2)c2ccc(OC)cc12	> 100 µM
CCCCCCCCCCCCCCCCCCN(C)CC(COP(=O)([O-])OCC[N+](C)(C)C)OC (stereo unspecified)	48.2 µM
Cc1nc2c(=O)n(C)ncc2[nH]1	> 100 µM
Cn1cc2ccccc2c1-c1nc(F)nc(OCC(=O)[C@H]2CCC3[C@@H]4CCC5=CC(=O)CC[C@]5(C)C4[C@@H](O)C[C@@]32C)n1 (stereo partly specified)	58.8 µM
COC(=O)c1c2cccccc-2c(Cc2c3cccccc-3c(C(=O)OC)c2O)c1O	> 100 µM
Cc1ccc(NC(=O)c2cc(S(=O)(=O)Nc3nc4ncccc4[nH]3)c(SSc3cc(Cl)c(C(=O)Nc4ccc(C)cc4)cc3S(=O)(=O)Nc3nc4ncccc4[nH]3)cc2Cl)cc1	> 100 µM

---

- Tested on: NCI-H460 lung
Classes used: class 1 for active, class 0 for inactive

compound	label
C=C1C(=O)O[C@H]2[C@H]1CC/C(Cn1cc(-c3ccccc3C(F)(F)F)nn1)=C\CC[C@@]1(C)O[C@@H]21	class 0
CCN1CCN(CC(=O)N2c3cccc4cccc(c34)N(C(=O)CN3CCN(CC)CC3)C2c2cn(-c3ccccc3)nc2-c2cccc([N+](=O)[O-])c2)CC1	class 0
COC(=O)CC[C@H](Cc1ccccc1)NC(=O)c1csc([C@@H](C[C@H](C(C)C)N(C)C(=O)[C@@H](NC(=O)[C@H]2CCCCN2C)C(C)C)OC(C)=O)n1	class 1
COc1cc2c(cc1OCCCC(=O)Nc1ccc3ccc4cccc5ccc1c3c45)N=C[C@@H]1CCCN1C2=O	class 1
CCN(CC)c1ccc(C(=O)c2ccc(N(CC)CC)cc2)cc1	class 1
COc1cc(C2CC(c3ccc(Nc4ccnc5cc(Cl)ccc45)cc3)=NN2c2ccc(Cl)cc2)cc(OC)c1OC (stereo not drawn)	class 0
C#CCOc1cccc(Nc2ncnc3cc(NC(=O)CCl)ccc23)c1	class 0
C=C1CC2(OC1=O)C(=O)Nc1ccccc12 (stereo not drawn)	class 0

---

- Tested on: SF-295 CNS
- experiment summary: NCI tumour cell line growth inhibition, 48 h; in the data active means GI50 below about 0.43 µM; inactive means the rest
Classes used: yes (1) for active, no (0) for inactive

molecule	label
Cc1cnc(C(=O)NNc2nc3sc4c(c3c(=O)n2C)C(C)CCC4)cn1 (centres undefined)	yes (1)
O=c1c(-c2ccccc2)coc2cc(OC/C(=N/O)c3ccccc3)ccc12	no (0)
COC(=O)[C@@H](C)C[C@H](Cc1ccccc1)NC(=O)c1csc([C@@H](C[C@H](C(C)C)N(C)C(=O)[C@@H](NC(=O)[C@H]2CCCCN2C)C2CC2)OC(C)=O)n1	yes (1)
CCN1CCN(CC(=O)N2c3cccc4cccc(c34)N(C(=O)CN3CCN(CC)CC3)C2c2cn(-c3ccccc3)nc2-c2cccc([N+](=O)[O-])c2)CC1	no (0)

---

- Tested on: SN12C renal
- experiment summary: NCI tumour cell line growth inhibition, 48 h
Where a SMILES comes first, the peptide text is derived from it. The star is where a group is joined. Boc = CC(C)(C)OC(=O)*
Please mark class 1 if the recorded TGI is equal to or greater than 30 µM, and class 0 if it falls below.

molecule	label
Oc1ccc(-c2nc3ccc(Cl)cc3s2)cc1	class 1
O=C1CSC(c2cccc([N+](=O)[O-])c2)N1c1ccc(-n2c(-c3ccccc3)nc3ccccc3c2=O)cc1 (stereo unspecified)	class 1
Cc1ccc(NC(=O)c2cc(S(=O)(=O)Nc3nc4ncccc4[nH]3)c(SSc3cc(Cl)c(C(=O)Nc4ccc(C)cc4)cc3S(=O)(=O)Nc3nc4ncccc4[nH]3)cc2Cl)cc1	class 1
CN(C)c1nc(Cl)c2c(-c3ccccc3)c(-c3ccccc3)oc2n1	class 1
CN(C)c1ccc(/C=C/c2cc[n+](C)c(/C=C/c3ccc(N(C)C)cc3)c2)cc1	class 0
CO/N=C(\C)c1cccc(Nc2c3ccccc3nc3occc23)c1	class 1
NC(N)=NS(=O)(=O)c1ccc(NCCc2c3ccccc3nc3ccccc23)cc1	class 1
CC(C)CC(NC(=O)OC(C)(C)C)C(=O)Nc1ccc(Nc2nc(F)nc(-c3c4ccccc4cn3C)n2)cc1 (stereo unspecified)	class 1
N#C/C(=C\c1ccc(Br)cc1)n1nnc2ccc(F)cc21	class 0
N[C@H]1CCCC[C@@H]1N1C(=O)c2ccccc2C1(O)c1ccc(Cl)cc1 (stereo partly specified)	class 0
COC(=O)C(Cc1c[nH]c2ccccc12)NC(=O)C(Cc1c[nH]c2ccccc12)NC(=O)C(Cc1c[nH]c2ccccc12)NC(=O)C(Cc1c[nH]c2ccccc12)NC(=O)C(Cc1c[nH]c2ccccc12)NC(=O)C(Cc1c[nH]c2ccccc12)NC(=O)C(Cc1c[nH]c2ccccc12)NC(=O)C(Cc1c[nH]c2ccccc12)NC(=O)OC(C)(C)C (stereo unspecified) (Boc-WWWWWWWW-OMe; configuration not given here)	class 1
C#CCOc1cccc(Nc2ncnc3cc(NC(=O)CCl)ccc23)c1	class 0
COc1cccc(NC(=O)/C(Cc2nc3ccccc3nc2C)=N/NC(=O)C[n+]2ccccc2)c1	class 1
O=[N+]([O-])c1cc(-c2nc(-c3ccccc3)c(-c3ccccc3)[nH]2)c(O)c([N+](=O)[O-])c1	class 1
C=C(c1ccccc1)[C@@]1(O)CC[C@@H]1N(CC#N)Cc1ccccc1	class 1
COc1cc(C2CC(c3ccc(Nc4ccnc5cc(Cl)ccc45)cc3)=NN2c2ccc(Cl)cc2)cc(OC)c1OC (stereo unspecified)	class 1

---

- Test system: SK-OV-3 ovarian
- experiment summary: NCI tumour cell line growth inhibition, 48 h

compound	TGI
CO/N=C(\C)CCC#Cc1ccccc1C(=O)OC	> 10 µM
O=[N+]([O-])c1ccc(N/N=C/c2ccc(OCCCCCCCCCCCO)cc2)c([N+](=O)[O-])c1	11.6 µM
CCOC(=O)CCC(NC(=O)c1ccc(OCc2ccc3nc(-c4ccccc4)c(Cl)nc3c2)cc1)C(=O)OCC (stereo not drawn)	> 100 µM
COc1ccc(SCc2cc(OCc3ccccc3)c(OCc3ccccc3)c(OCc3ccccc3)c2)cc1	3.18 µM
CC(=O)OCc1ccc2oc(=O)c(C(=O)Oc3ccccc3)cc2c1	> 100 µM
Nn1c(Cc2ccc([N+](=O)[O-])cc2)n[nH]c1=O	> 100 µM
CCCSS[C@H]1NC(=O)[C@H]1NC(=O)COc1ccccc1	> 100 µM
CCCCn1c2c(n(CCCC)c1=S)-c1c(n(CCCC)c(=S)n1CCCC)SSc1c(n(CCCC)c(=S)n1CCCC)-c1c(n(CCCC)c(=S)n1CCCC)SSc1c(n(CCCC)c(=S)n1CCCC)-c1c(n(CCCC)c(=S)n1CCCC)SS2	> 50 µM
COc1ccc(OCC(=O)O)c(C(=O)CCC(=O)O)c1	> 100 µM
N#Cc1c(N)nc(Sc2ccccc2N)c(C#N)c1-c1ccc(Cl)cc1	40.6 µM
Cc1cc(C)c(-n2c(-c3ccc(Br)cc3)cs/c2=N\N=C2C=C(C(C)(C)C)C(=O)C(C(C)(C)C)=C2)c(C)c1	> 100 µM
Nc1nc2c3nc(Nc4ccccc4)sc3nc(=O)n2c2sc(Nc3ccccc3)nc12	> 100 µM
COc1ccc2nc(-c3ccc(O)cc3)sc2c1	91.2 µM
COC(=O)Nc1nc2ccc(Br)cc2[nH]1	67.9 µM
CCCCCCCCCCCCC(O)[C@H]1CC[C@H](C(O)CCCCCC(=O)CCCCC2CC(C(C)=O)C(=O)O2)O1 (stereo partly drawn)	28 µM
N#C/C(=C\c1ccc(Br)cc1)n1nnc2ccc(F)cc21	> 100 µM
CCOC(=O)c1c2c(n3ccccc13)C(=O)c1ncccc1C2=O	22.9 µM
C=C1C(=O)O[C@H]2[C@H]1CC/C(Cn1cc(-c3ccccc3C(F)(F)F)nn1)=C\CC[C@@]1(C)O[C@@H]21	31.2 µM
CCCC(=O)OC1C(CO)OC(n2cc(F)c(=O)[nH]c2=O)C1F (stereo not drawn)	> 100 µM
O=C(O)CCc1nn2c(nc1=O)sc1ccc3ccccc3c12	> 100 µM
Cc1ccnc(NC(NC(=O)c2ccccc2)(C(F)(F)F)C(F)(F)F)c1	> 100 µM
C=C1CCC([N+](=O)[O-])[C@](C)(N=O)CC[C@@H]2C1CC2(C)C (stereo partly drawn)	> 100 µM
O=c1c(-c2ccccc2)coc2cc(OC/C(=N/O)c3ccccc3)ccc12	88.5 µM
O=C1C(Cl)=C(Nc2ccc(S(=O)(=O)Nc3ccccn3)cc2)C(=O)c2ccccc21	43 µM
CC1OC(n2cc(F)c(=O)[nH]c2=O)C=CC1=O (stereo not drawn)	95.9 µM
Cc1cc(=O)oc2c(CNC(Cc3ccccc3)C(=O)O)c(O)ccc12 (stereo not drawn)	> 100 µM
CC(C)CC(NC(=O)OC(C)(C)C)C(=O)Nc1ccc(Nc2nc(F)nc(-c3c4ccccc4cn3C)n2)cc1 (stereo not drawn)	> 100 µM
COC(=O)CC[C@H](Cc1ccccc1)NC(=O)c1csc([C@@H](C[C@H](C(C)C)N(C)C(=O)[C@@H](NC(=O)[C@H]2CCCCN2C)C(C)C)OC(C)=O)n1	> 25 µM
